These entries and their values trace back to the supplement of paper PMC11246515.

experiment: total protein half-life in vivo (active degradation + dilution); higher = more stable protein; conditions: E. coli NCM3722 delta-lon; growth: N-lim chemostat; doubling time 6 h
QUANTITY MEASURED: total protein half-life in vivo (h)
Number in h, nothing else.

What value of total protein half-life in vivo has been recorded for this entry: MEQRRLASTEWVDIVNEENEVIAQASREQMRAQCLRHRATYIVVHDGMGKILVQRRTETKDFLPGMLDATAGGVVQADEQLLESARREAEEELGIAGVPFAEHGQFYFEDKNCRVWGALFSCVSHGPFALQEDEVSEVCWLTPEEITARCDEFTPDSLKALALWMKRNAKNEAVETETAE
2.72

What value of total protein half-life in vivo has been recorded for this entry: MTLTASSSSRAVTNSPVVVALDYHNRDDALAFVDKIDPRDCRLKVGKEMFTLFGPQFVRELQQRGFDIFLDLKFHDIPNTAAHAVAAAADLGVWMVNVHASGGARMMTAAREALVPFGKDAPLLIAVTVLTSMEASDLVDLGMTLSPADYAERLAALTQKCGLDGVVCSAQEAVRFKQVFGQEFKLVTPGIRPQGSEAGDQRRIMTPEQALSAGVDYMVIGRPVTQSVDPAQTLKAINASLQRSA
5.08

----------
test: total protein half-life in vivo (active degradation + dilution); higher = more stable protein; conditions: E. coli NCM3722 delta-lon; growth: N-lim chemostat; doubling time 6 h
So I've got a bunch of sequences here, and I need their total protein half-life in vivo values.
Hi, when you answer, please include the unit after the number. Thanks!

What value of total protein half-life in vivo has been recorded for this entry: MTLQQQIIKALGAKPQINAEEEIRRSVDFLKSYLQTYPFIKSLVLGISGGQDSTLAGKLCQMAINELRLETGNESLQFIAVRLPYGVQADEQDCQDAIAFIQPDRVLTVNIKGAVLASEQALREAGIELSDFVRGNEKARERMKAQYSIAGMTSGVVVGTDHAAEAITGFFTKYGDGGTDINPLYRLNKRQGKQLLAALACPEHLYKKAPTADLEDDRPSLPDEVALGVTYDNIDDYLEGKNVPQQVARTIENWYLKTEHKRRPPITVFDDFWKK
5.15 h

What value of total protein half-life in vivo has been recorded for this entry: MRSKYIVIEGLEGAGKTTARNVVVETLEQLGIRDMVFTREPGGTQLAEKLRSLVLDIKSVGDEVITDKAEVLMFYAARVQLVETVIKPALANGTWVIGDRHDLSTQAYQGGGRGIDQHMLATLRDAVLGDFRPDLTLYLDVTPEVGLKRARARGELDRIEQESFDFFNRTRARYLELAAQDKSIHTIDATQPLEAVMDAIRTTVTHWVKELDA [P0A720]
4.52 h

What value of total protein half-life in vivo has been recorded for this entry: MAELSDQEMLRYNRQIILRGFDFDGQEALKDSRVLIVGLGGLGCAASQYLASAGVGNLTLLDFDTVSLSNLQRQTLHSDATVGQPKVESARDALTRINPHIAITPVNALLDDAELAALIAEHDLVLDCTDNVAVRNQLNAGCFAAKVPLVSGAAIRMEGQITVFTYQDGEPCYRCLSRLFGENALTCVEAGVMAPLIGVIGSLQAMEAIKMLAGYGKPASGKIVMYDAMTCQFREMKLMRNPGCEVCGQ
6.67 h

What value of total protein half-life in vivo has been recorded for this entry: MRLTSKGRYAVTAMLDVALNSEAGPVPLADISERQGISLSYLEQLFSRLRKNGLVSSVRGPGGGYLLGKDASSIAVGEVISAVDESVDATRCQGKGGCQGGDKCLTHALWRDLSDRLTGFLNNITLGELVNNQEVLDVSGRQHTHDAPRTRTQDAIDVKLRA [P0AGK8]
1.43 h

What value of total protein half-life in vivo has been recorded for this entry: MKLTLKNLSMAIMMSTIVMGSSAMAADSNEKIVIAHRGASGYLPEHTLPAKAMAYAQGADYLEQDLVMTKDDNLVVLHDHYLDRVTDVADRFPDRARKDGRYYAIDFTLDEIKSLKFTEGFDIENGKKVQTYPGRFPMGKSDFRVHTFEEEIEFVQGLNHSTGKNIGIYPEIKAPWFHHQEGKDIAAKTLEVLKKYGYTGKDDKVYLQCFDADELKRIKNELEPKMGMELNLVQLIAYTDWNETQQKQPDGSWVNYNYDWMFKPGAMKQVAEYADGIGPDYHMLIEETSQPGNIKLTGMVQDAQQNKLVVHPYTVRSDKLPEYTPDVNQLYDALYNKAGVNGLFTDFPDKAVKFLNKE
7.08 h

What value of total protein half-life in vivo has been recorded for this entry: MVSRKRNSVIYRFASLLLVLMLSACSALQGTPQPAPPVTDHPQEIRRDQTQGLQRIGSVSTMVRGSPDDALAEIKAKAVAAKADYYVVVMVDETIVTGQWYSQAILYRK
6.07 h

What value of total protein half-life in vivo has been recorded for this entry: MEYKDPMHELLSSLEQIVFKDETQKITLTHRTTSCTEIEQLRKGTGLKIDDFARVLGVSVAMVKEWESRRVKPSSAELKLMRLIQANPALSKQLME [P0A9V5]
0.337 h
